B1: CDC34 (parent)
chain: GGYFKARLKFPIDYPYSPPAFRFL

Variants of: B1
ASSAY_PROCEDURE: protein stability index of a GFP-peptide fusion (GPS, HEK-293T) (PSI 1-6); higher = more stable;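 note: lentivirally expressed fusions sorted by FACS into six bins by GFP to DsRed ratio, PSI derived from sequencing read proportions per bin multiplied by bin number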
TEST_CONTEXT: c terminus: a fixed tail appended
ASSAY_READOUT: protein stability index
Output spec: single numeric token, no unit.

F10H : 3.49

Input line: Reported protein stability index, variant R22Q : ____
Output line: 2.65

Input line: Any idea what its protein stability index is? The variant is L8Y
Output line: 1.53

Sourced from the supplement of paper PMC10567573
